- protocol text: viability loss with induced miR-34 in A549 – imaging, A549 dox-inducible miR-34, nuclei and caspase counts, primary screen (AID 1347080); note: test concentration not given here
- settings: A549 miR-34 inducible, Hoechst nuclei count, 48 h; hits give low values; cell number ratio, induced over uninduced
In plain terms, low fold change, meaning strictly below 1, gives criterion met, and everything else gives criterion not met.

Sample answers from the record:
CC(C)n1cnc2c(NCCc3ccc(O)cc3)nc(-c3csc4ccccc34)nc21 ... criterion met
O[C@@H]1[C@H](O)[C@@H](CCl)O[C@H]1n1cnc2c(NC3CC4CCC3C4)ncnc21 (stereo not given in full) ... criterion met
CCN1CCN(Cc2ccc(Nc3ncc(F)c(-c4cc(F)c5nc(C)n(C(C)C)c5c4)n3)nc2)CC1 ... criterion met

Dear reviewer, please state whether O=C(O)CCCCCC[C@H]1C(=O)NC(=O)N1CCC(O)C1CCCCC1 (stereo not given in full) has fold change strictly beneath 1.
criterion not met

Dear reviewer, please state whether O=P(O)(O)O[C@H]1[C@@H](O)[C@H](O)[C@@H](OP(=O)(O)O)[C@H](OP(=O)(O)O)[C@H]1O has fold change strictly beneath 1.
criterion met

Dear reviewer, please state whether CN(C)Cc1c(C(=O)NCCOc2ccc(C(=O)NO)cc2)oc2ccccc12 has fold change strictly beneath 1.
criterion not met

Dear reviewer, please state whether CCCCCCCCCCCCCC(=O)O has fold change strictly beneath 1.
criterion not met

Dear reviewer, please state whether CC1(COc2ccc3c(c2)ncn3-c2ccc3cccc(N4CCC(N)CC4)c3n2)COC1 has fold change strictly beneath 1.
criterion met

Dear reviewer, please state whether CC(C)Oc1ccc(C(=O)c2ccc(NC3=NCCN3)cc2)cc1 has fold change strictly beneath 1.
criterion not met

Dear reviewer, please state whether O=C(O)COc1ccc(C(=O)c2cccs2)c(Cl)c1Cl has fold change strictly beneath 1.
criterion met
